system: CCRIS mutagenicity, Ames/micronucleus/aberration tests; experiment: CCRIS mutagenicity studies; settings: Test System: AMES SALMONELLA TYPHIMURIUM; Strain/Indicator: TA102; Metabolic Activation: RAT, LIVER, S-9, AROCLOR 1254; Method: STANDARD PLATE
Calls of active or inactive are those of the source. The rule behind the calls is not given here.
Pick from T for active, F for inactive when you respond.

Would you please look over these solved cases?
INSERT INTO measurements (smiles_str, assigned_label) VALUES
  ('O=C(O)COc1ccc(Cl)cc1', 'F'),
  ('COc1cc([C@@H]2c3cc4c(cc3[C@H](O)[C@H]3COC(=O)[C@H]23)OCO4)cc(OC)c1OC', 'F'),
  ('O=C(O)/C(Cl)=C(\C(=O)O)C(Cl)Cl', 'F'),
  ('NC(=O)NCC(=O)O', 'F'),
  ('COc1cccc2c1C(=O)c1c(O)c3c(c(O)c1C2=O)C[C@@](O)(C(=O)CO)C[C@@H]3O[C@H]1C[C@H](N)[C@H](O)[C@H](C)O1', 'T');

Answer briefly: the call reported for `Cc1c(N(C)C)c(=O)n(-c2ccccc2)n1C` in this assay.
F
